B1: scFv; the commonest letter at each place (parent)
chain 1: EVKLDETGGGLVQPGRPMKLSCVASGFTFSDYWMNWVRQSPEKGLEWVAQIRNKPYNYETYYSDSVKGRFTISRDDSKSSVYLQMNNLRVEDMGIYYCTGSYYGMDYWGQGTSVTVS
chain 2: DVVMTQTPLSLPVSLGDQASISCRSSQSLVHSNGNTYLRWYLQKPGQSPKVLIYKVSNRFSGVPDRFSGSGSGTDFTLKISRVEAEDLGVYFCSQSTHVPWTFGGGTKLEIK

- Variants of: B1
- Protocol description: Kd (Tite-Seq)
- Experimental setup: with fluorescein; format: scFv 4-4-20, heavy + light
Measure name: Kd

query: Suppose we examine the variant chain 1 Y32C M34T ; what Kd value has been reported?
result: ≥ 10 µM

query: And then chain 1 F29L , what is it?
result: 0.0402 µM

query: Another variant: chain 1 G100R M105Y W108P
result: ≥ 10 µM

query: Now consider chain 1 T28W D31Y .
result: 0.11 µM

query: Query chain 1 Y102F G109H next
result: ≥ 10 µM

query: Please answer likewise for chain 1 Y102G D106Y
result: ≥ 10 µM

query: Same for chain 1 G100D W108R
result: ≥ 10 µM

query: And the next one, chain 1 Y103E ?
result: 0.0166 µM

query: Same for chain 1 Y103K
result: 0.00301 µM

query: Follow-up entry: chain 1 D106F G109A
result: ≥ 10 µM

query: Can you handle chain 1 N35C next?
result: ≥ 10 µM

query: Now this one: chain 1 Y102Q G104L W108S
result: ≥ 10 µM

query: And for chain 1 Y32L W36F ?
result: ≥ 10 µM

query: Do the same for chain 1 D106N W108K please
result: ≥ 10 µM

query: Also need chain 1 W36R , thanks.
result: 8.34 µM

query: Okay, and chain 1 S101Q G104P ?
result: ≥ 10 µM

query: Now consider chain 1 D31T W33F and answer again.
result: 2.11 µM

query: And what about the variant chain 1 D31V M34E ?
result: 0.676 µM

query: Another variant: chain 1 G104T
result: ≥ 10 µM

query: Query chain 1 G100L S101K next
result: ≥ 10 µM

query: And then chain 1 Y102T Y103W , what is it?
result: 0.00785 µM

query: Please give the result for chain 1 S30T W33F too.
result: 0.0534 µM

query: Would you mind doing chain 1 S101P as well?
result: ≥ 10 µM

query: Again, but for chain 1 D31Y W33F V37H
result: ≥ 10 µM

query: Another variant: chain 1 S30W N35V
result: ≥ 10 µM

query: Queued: chain 1 M34P N35Q
result: ≥ 10 µM

query: What about chain 1 D31S W36C ?
result: ≥ 10 µM

query: Repeat with chain 1 F29A M34G
result: ≥ 10 µM

query: Next up: chain 1 D106V W108N
result: ≥ 10 µM

query: Subsequent entry: chain 1 Y102E Y107A
result: ≥ 10 µM

query: Cool, now chain 1 G100M M105P Y107D
result: ≥ 10 µM

query: Same question, chain 1 Y103D Y107C this time
result: ≥ 10 µM

Where do the numbers come from? From the FLAb antibody collection (doi:10.7554/elife.23156).
